TARGET_OF_ASSAY: T1, KDM7A (KIAA1718) PHD-finger
T1 chain: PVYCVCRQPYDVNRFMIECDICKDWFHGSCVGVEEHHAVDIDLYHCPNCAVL
ASSAY_PROCEDURE: BLI
Bridge positions count the residues as written; N and C are the ends. Ends that are not written are not given here.
ATTRIBUTE_MEASURED: Kd (nM)
The reply should be a number in nM, with the unit left off.

Q: Query: Kd; subject: {CH2CO}-YYLTHPYPSVFRTC (thioether N-14) [OC9, de novo cyclic peptide from mRNA display]
A: 20

// provenance: paper PMC10321576
